ILS at 300 mg/kg by entry:
Test system: Lymphocytic leukemia P388
Experiment: Increase in life span, lymphocytic leukemia P388, 10^6 tumor cell implant, i.p.
Assay type: in vivo
Settings: Mus musculus, P388, ip, 300 mg/kg, schedule 1-5, read-out: P388 % ILS (increase in life span at the highest nontoxic dose)
Quantity name: ILS at 300 mg/kg (%)

> print(dat)
                                   molecule  unit.string  reported.value
1  CCOC(=O)Nc1cc2c(c(N)n1)N=C(c1ccc3ccccc3c1)CS2 [o]            %               5
2  CCOC(=O)Nc1cc2c(c(N)n1)N=C(c1ccc(OC)cc1)CS2 [n]            %               3
3  CCOC(=O)Nc1cc2c(c(N)n1)N=C(c1cc(OC)c(OC)c(OC)c1)CO2 [g]            %               0
4  CCOC(=O)Nc1cc2oc(=O)c(-c3ccccc3)nc2c(N)n1 [e]            %               0
5  CCOC(=O)Nc1cc2c(c(N)n1)N=C(c1ccccc1)CS2 [j]            %               0
6  CCOC(=O)Nc1cc2c(c(N)n1)N=C(c1ccc([N+](=O)[O-])cc1)CO2 [i]            %               0
7  CCOC(=O)Nc1cc2c(c(N)n1)N=C(c1ccc(Cl)cc1)CO2 [h]            %               0
8  CCOC(=O)Nc1cc2c(c(N)n1)N=C1c3ccccc3CCC1O2 (centres unmarked) [d]            %              32
